src = PubChem BioAssay (NCI)

- System: SN12C renal
- Assay Remarks: NCI-60 one-dose screen, 48 h
- Settings: 10 µM unless noted
Compounds without any hit were thinned out: in the full panel of roughly 83,000, 20% have a hit. Active and inactive are the calls of the source. The calls were made as follows: active = growth percent below 10; inactive = the rest.
Pick one and only one: active, inactive

Problem: Please state the recorded outcome for this compound: C[PH+](c1nc2ccccc2nc1[PH+](C)C(C)(C)C)C(C)(C)C.C[PH+](c1nc2ccccc2nc1[PH+](C)C(C)(C)C)C(C)(C)C.[Au+].[Cl-] (stereo not drawn)
Solution: active

Problem: Please share the test call associated with COc1ccc(\C=N/N=C(N)/C(N)=N\N=C/c2ccc(OC)cc2)cc1 .
Solution: inactive

Problem: GET /call?item= N#Cc1nc(-c2ccc(F)cc2)oc1S(=O)(=O)N1CCOCC1 returns the recorded outcome of this test.
Solution: inactive

Problem: Please let me know the test result on file for CCC1=C[C@@H]2C[C@]3(C(=O)OC)c4[nH]c5ccccc5c4CC[N@+](CC(=O)Nc4cc5c(cc4OC)N(C)[C@H]4[C@@](O)(C(=O)OC)[C@H](OC(C)=O)[C@]6(CC)C=CCN7CC[C@]54[C@@H]76)(C2)[C@H]13 .
Solution: inactive

Problem: Please let me know the test result on file for COc1cc(NS(=O)(=O)c2ccc(-c3cnc(C4CC4)o3)cc2)ccc1F .
Solution: inactive

Problem: Please indicate how the test categorized COc1cc2c(c(OC)c1OC)CCC(c1cccc(NC(=O)c3ccc(Br)cc3)c1)O2 (stereo not drawn) .
Solution: inactive

Problem: Test call, this compound: Nc1cc(C(=O)NC[C@H]2CN(c3ccc(N4CCC(C(=O)O)CC4)cc3)C(=O)O2)ccc1Cl
Solution: inactive

Problem: Each compound tested received a call. Report the one for Cc1c2cnccc2c(C)c2c1c1cc(C#N)ccc1n2C .
Solution: active
